Target: AR-LBD (Rattus norvegicus)
Sequence (P15207 651-882 limits assumed): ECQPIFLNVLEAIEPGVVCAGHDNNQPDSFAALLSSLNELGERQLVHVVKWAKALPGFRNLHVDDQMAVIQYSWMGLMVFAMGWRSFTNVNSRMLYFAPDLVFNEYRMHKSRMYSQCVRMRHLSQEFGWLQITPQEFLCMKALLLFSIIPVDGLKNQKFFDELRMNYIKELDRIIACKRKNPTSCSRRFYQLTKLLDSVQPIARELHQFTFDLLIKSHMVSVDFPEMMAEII
reported endpoint: IC50 (µM)
State the answer as a number, implicitly in µM.

{"molecule": "C[C@]12CC[C@H]3C(=CCc4cc(O)ccc43)[C@@H]1CCC2=O", "measure unit": "µM", "reported measurement": 21}

Now examine the next entry.
GET /value?item= C=C1C[C@H]2[C@@H]3C=C(C)C4=CC(=O)CC[C@]4(C)[C@H]3CC[C@]2(C)[C@@]1(OC(C)=O)C(C)=O [Melengestrol acetate] &field=IC50 returns 1.17

====

Target: rat AR ligand-binding domain (LBD) fused to the DNA-binding domain of GAL4 (Rattus norvegicus, UniProt P15207)
Experiment: qHTS AR β-lactamase
reported endpoint: EC50 (µM)
Please give a number only; it is taken to be in µM.

Lab note: measured EC50 of C[C@]12CC[C@H]3C(=CCc4cc(O)ccc43)[C@@H]1CCC2=O was 19.5
